tested on: KM12 colon; test: NCI tumour cell line growth inhibition, 48 h; in the data active = GI50 below about 0.43 µM; inactive = the rest
Use one of these outcomes when replying: active, inactive

Example entries and their recorded answers appear below.
CC1Cc2c(Cl)ncnc2N(C)c2ccccc21 (stereo not drawn) | inactive
COc1cc2ncnc(Oc3ccc(NC(=O)Nc4ccc(CN5CCOCC5)c(C(F)(F)F)c4)c4ccccc34)c2cc1OC | active
CCOC(=O)N1CCC(N=C2CSc3nnc(-c4cc(C(F)(F)F)cc(C(F)(F)F)c4)n3N2)CC1 | inactive
CCOC(=O)C1=C(Nc2ccc(OC)cc2)C(N)=NC1=N | inactive
Cc1cc(I)cc(CN(C)CCCN2CCC(C)CC2)c1O | inactive
CC1=CC(C)=N/C(=N/S(=O)(=O)c2cc(C)c(Cl)cc2SCc2ccccc2)NN1 | inactive

Query: So what was the verdict on CCCCCCCCN(CCCCCCCC)CC(O)c1cc(-c2ccccc2)nc2ccc(OC)cc12 (stereo not drawn) in this test?
Reply: inactive

Query: Again, but for `CN(C(=O)C(C)(C)C)c1ccccc1I(=O)=O`
Reply: inactive
